System: MIWI (PIWIL1) piRISC loaded with Kctd7 piRNA (30 nt);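 further: 1 nM active piRISC with 0.1 nM target library at 33 °C single turnover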
method: pre-steady-state target cleavage rate (min^-1); higher = faster piRNA-guided slicing of the target
experimental-conditions: guide: Kctd7 piRNA 5'p-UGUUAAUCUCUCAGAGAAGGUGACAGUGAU; auxiliary factor: 500 nM mouse GTSF1
Whole data set: some 6,600 sequences, median “pre-steady-state target cleavage rate” near 0.07, cut for the highest 2% near 0.72. The entries come from a sample that favours the highest values as a whole.
Think of 0.09 as a floor: if pre-steady-state target cleavage rate stands on it or above, it is TRUE; beneath it, FALSE.

INSERT INTO results (residue_string, assigned_category) VALUES
  ('AUCACUCUCACCUUCUCUGAGAGAUUAUGA', 'FALSE');

Determine whether measured pre-steady-state target cleavage rate meets or exceeds 0.09 for "UAGACUGUGCACCUUCUCUGAGAGAUUAACA"
TRUE

Determine whether measured pre-steady-state target cleavage rate meets or exceeds 0.09 for "UAGUGACACACCAUCUCUGAGAGAUUAACA"
TRUE

* * *

Test system: MIWI (PIWIL1) piRISC loaded with Kctd7 piRNA (30 nt);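 further: 1 nM active piRISC with 0.1 nM target library at 33 °C single turnover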
method: pre-steady-state target cleavage rate (min^-1); higher = faster piRNA-guided slicing of the target
experimental-conditions: guide: Kctd7 piRNA 5'p-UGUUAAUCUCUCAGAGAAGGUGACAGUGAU; auxiliary factor: 500 nM mouse GTSF1
Over roughly 6,600 sequences, “pre-steady-state target cleavage rate” has its median near 0.07; the highest 2% begin near 0.72. The full list was thinned out, with the highest values kept by preference.
result-type: pre-steady-state target cleavage rate
Respond numerically, and do not add a unit to the figure.

// below: answered sequences
INSERT INTO assay_data (residue_string, experimental_result) VALUES
  ('UACACUGUCUCCUUCUCUGAGAGAUUAACA', 0.599),
  ('UAGUGUGACACCUUCUCUGAGAGAUUAUGA', 0.0202),
  ('UUGACUGUCUCCUUCUCUGAGAGAUUAACA', 0.746),
  ('UAGAGUGUCACCUUCUCUGAGAGAUAAACA', 0.362),
  ('AACACUGUCUCCUUCUCUGAGAGAUUAACA', 0.738),
  ('UAGACUGUCUCCUUCUCUGAGAGAUUAACA', 0.662);

# next sequence below
For the sequence "AUGACUGUCUCCUUCUCUGAGAGAUUAACA" , what pre-steady-state target cleavage rate is on record?
0.623

* * *

Test system: MIWI (PIWIL1) piRISC loaded with Kctd7 piRNA (30 nt);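 further: 1 nM active piRISC with 0.1 nM target library at 33 °C single turnover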
method: pre-steady-state target cleavage rate (min^-1); higher = faster piRNA-guided slicing of the target
experimental-conditions: guide: Kctd7 piRNA 5'p-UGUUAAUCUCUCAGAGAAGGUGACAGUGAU; auxiliary factor: 500 nM mouse GTSF1
Whole data set: some 6,600 sequences, median “pre-steady-state target cleavage rate” near 0.07, cut for the highest 2% near 0.72. This is one part of a sample in which the highest values are shown more often than they occur.
result-type: pre-steady-state target cleavage rate
Respond numerically, and do not add a unit to the figure.

// below: answered sequences
INSERT INTO results (residue_string, result_type, experimental_result) VALUES
  ('UUCACUGUCACCUUACUCUGAGAGAUUAACA', 'pre-steady-state target cleavage rate', 0.522),
  ('UUCACUGUCACUUUCUCUGAGAGAUUAACA', 'pre-steady-state target cleavage rate', 0.691),
  ('UAGACUGUCACACUUCUCUGAGAGAUUAACA', 'pre-steady-state target cleavage rate', 0.607),
  ('AUCACUGUCACCUUCUCUGAGAGAUUAACA [g2:g30:cont:t1A]', 'pre-steady-state target cleavage rate', 0.734),
  ('AUCACUGUCACCUUUCUCUGAGAGAUUAACA', 'pre-steady-state target cleavage rate', 0.599),
  ('UAGUGACACACCUUCUCAGAGUGAUUAACA', 'pre-steady-state target cleavage rate', 0.00558),
  ('UACACUGUCACUUCUCUGAGAGAUUAACA', 'pre-steady-state target cleavage rate', 0.577),
  ('UACACUGUCACCUUUCUCUGAGAGAUUAACA', 'pre-steady-state target cleavage rate', 0.575),
  ('UAGACUGUCACCUUCUCUGAGAGCAUUAACA', 'pre-steady-state target cleavage rate', 0.38),
  ('UAGACAGUCACCUUCUCUGAGAGAUUAUCA', 'pre-steady-state target cleavage rate', 0.252);

Hello, I am looking for reported pre-steady-state target cleavage rate with MIWI (PIWIL1) piRISC loaded with Kctd7 piRNA (30 nt) for "UAGUGUCUCACCUUCACUGAGAGAUUAACA" . Could you help?;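 further: 1 nM active piRISC with 0.1 nM target library at 33 °C single turnover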
0.276

Hello, I am looking for reported pre-steady-state target cleavage rate with MIWI (PIWIL1) piRISC loaded with Kctd7 piRNA (30 nt) for "UAGUCUCACACCUUCUCUGAGAGAUUAUGA" . Could you help?;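 further: 1 nM active piRISC with 0.1 nM target library at 33 °C single turnover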
0.0207

Hello, I am looking for reported pre-steady-state target cleavage rate with MIWI (PIWIL1) piRISC loaded with Kctd7 piRNA (30 nt) for "UUCACUUGUCACCUUCUCUGAGAGAUUAACA" . Could you help?;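 further: 1 nM active piRISC with 0.1 nM target library at 33 °C single turnover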
0.63

* * *

Test system: MIWI (PIWIL1) piRISC loaded with Kctd7 piRNA (30 nt);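 further: 1 nM active piRISC with 0.1 nM target library at 33 °C single turnover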
method: pre-steady-state target cleavage rate (min^-1); higher = faster piRNA-guided slicing of the target
experimental-conditions: guide: Kctd7 piRNA 5'p-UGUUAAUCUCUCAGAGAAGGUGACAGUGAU; auxiliary factor: 500 nM mouse GTSF1
Over roughly 6,600 sequences, “pre-steady-state target cleavage rate” has its median near 0.07; the highest 2% begin near 0.72. This is one part of a sample in which the highest values are shown more often than they occur.
# Lookup of reported pre-steady-state target cleavage rate keyed by entry
Respond numerically, and do not add a unit to the figure.

// below: answered sequences
INSERT INTO measurements (residue_string, experimental_system, experimental_result) VALUES
  ('UAGACAGUGACCUUCUCUGAGAGAUUAACA', 'MIWI (PIWIL1) piRISC loaded with Kctd7 piRNA (30 nt)', 0.554),
  ('UAGUCUCUCACCUUCUGUGAGAGAUUAACA', 'MIWI (PIWIL1) piRISC loaded with Kctd7 piRNA (30 nt)', 0.00482),
  ('AUGAGUGUCACCUUCUCUGAGAGAUUAACA', 'MIWI (PIWIL1) piRISC loaded with Kctd7 piRNA (30 nt)', 0.706);

For the sequence "UAGUCUGUCACCUUCUCUGACAGAUUUACA" , what pre-steady-state target cleavage rate is on record?
0.0113

For the sequence "UAGUCUGUCACCUUCUCUGAGAGAAAUACA" , what pre-steady-state target cleavage rate is on record?
0.0823

For the sequence "UAGUGACAGACCUUCUCUGAGAGAUAUACA" , what pre-steady-state target cleavage rate is on record?
0.0324

For the sequence "UACAGUGUCACCUUCUCUGAGUGAUUAACA" , what pre-steady-state target cleavage rate is on record?
0.0377

For the sequence "UACACUAGUCACCUUCUCUGAGAGAUUAACA" , what pre-steady-state target cleavage rate is on record?
0.663

For the sequence "UUGUGUGUCACCUUCUCUGAGAGAUUAACA" , what pre-steady-state target cleavage rate is on record?
0.571

For the sequence "UAGUGUGUCACCUUCUCUGAGAGAGUAACA" , what pre-steady-state target cleavage rate is on record?
0.394

For the sequence "UAGUGACAGACCUUCUCUGUGACAUUAACA" , what pre-steady-state target cleavage rate is on record?
0.00672

For the sequence "UUCACUGUCUCCUUCUCUGAGAGAUUAUCA" , what pre-steady-state target cleavage rate is on record?
0.231

For the sequence "UAGUGACAGUCCUUCUCUGAGACAUUAACA" , what pre-steady-state target cleavage rate is on record?
0.0121

* * *

Test system: MIWI (PIWIL1) piRISC loaded with Kctd7 piRNA (30 nt);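 further: 1 nM active piRISC with 0.1 nM target library at 33 °C single turnover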
method: pre-steady-state target cleavage rate (min^-1); MIWI and MILI are mouse PIWI proteins and EfPiwi is from a freshwater sponge; tags in brackets are library labels; higher = faster piRNA-guided slicing of the target;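 further: 1 nM active piRISC with 0.1 nM target library at 33 °C single turnover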
experimental-conditions: guide: Kctd7 piRNA 5'p-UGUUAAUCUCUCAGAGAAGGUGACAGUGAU; auxiliary factor: 500 nM mouse GTSF1
Over roughly 6,600 sequences, “pre-steady-state target cleavage rate” has its median near 0.07; the highest 2% begin near 0.72. This excerpt belongs to a sample that is enriched for the highest values.
Recorded pre-steady-state target cleavage rate determines the group label, using low bracket (below 0.09), middle bracket (0.09 to below 0.7), high bracket (0.7 or more)

Recorded results for 5 sequences are shown here.
INSERT INTO assay_data (residue_string, assigned_category) VALUES
  ('UACUCUGUCACCUUCUCUGAGAGAUUAACA', 'middle bracket'),
  ('UAGUGACUCACCUUCUCUGAGAGAUUAACC [g2:g23:cont:t1C]', 'middle bracket'),
  ('UACACUGUCACCUUCUGAGAGAGAUUUUGA', 'low bracket'),
  ('UAGUGACUCACCUUGUCUGUGAGAUUAACA', 'low bracket'),
  ('AUCACUGUCACCUUCUCUGAGAGAUUAAUCA', 'middle bracket');

Note: place this sequence into its band. Item: "UUACUGUCACCUUCUCUGAGAGAUUAACA"
high bracket

Note: place this sequence into its band. Item: "UUCACUGUCACCUUGUCUGAGAGAUUUUGA"
high bracket

Note: place this sequence into its band. Item: "AUCACUGUCACCUUUUCUGAGAGAUUAACA"
high bracket

Note: place this sequence into its band. Item: "UACACUGUCACCUUCACUGAGAGAUUUUGA"
middle bracket

Note: place this sequence into its band. Item: "UUCAGUGUCACCUACUCUGAGAGAUUAACA"
middle bracket

Note: place this sequence into its band. Item: "UAGUGACACACCUUCUCAGAGAGAUUAAGA"
low bracket

Note: place this sequence into its band. Item: "UAGUGACUCACCUUCUCUGUGACAUUAACA"
low bracket

Note: place this sequence into its band. Item: "UAGUGAGUCACCUUCACUCAGAGAUUAACA"
low bracket
